Test system: HT29 colon
test protocol: NCI-60 one-dose screen, 48 h (100 = growth as untreated, 0 = no growth, -100 = all killed)
condition info: 10 µM unless noted
The panel holds about 83,000 compounds, 20% with a hit somewhere; the sample as a whole holds those more often.
Please assign label 0 whenever growth is at or above 50%, and label 1 whenever it is below.

| compound | classification |
| --- | --- |
| COc1ccc2[nH]cc(-c3nonc3-c3c[nH]c4ccc(Br)cc34)c2c1 | label 1 |
| Cc1ccc(OCCOCCOCCOc2ccc(C)n(O)c2=S)c(=S)n1O | label 1 |
| C=CN(C(=O)N1CCN(c2cc3c(cc2F)c(=O)c(C(=O)O)cn3C2CC2)CC1)c1nc(-c2ccccc2)cs1 | label 0 |
| COc1ccc(Nc2ncc(C#N)c(NCCCNC(=O)C3CCC3)n2)cc1 | label 0 |
| COc1ccccc1S(=O)(=O)Nc1ccc2c3c(cc(CCC(=O)NCCCCNc4cccc5c4C(=O)N(C4CCC(=O)NC4=O)C5=O)cc13)C(=O)N2C (centres undefined) | label 1 |
| CCN(CC)CCOc1ccc2c(-c3ccccc3)c(-c3ccc(OC)cc3)c(=O)oc2c1 | label 1 |
| O=c1oc2c(cc1-c1ccccc1)c[n+]([O-])c1ccccc21 | label 0 |
| CC(=O)c1sc(-c2ccc(F)cc2)cc1O | label 0 |
| OC1CSSC1Cn1cnc2c(Nc3ccc(OCc4cccc(F)c4)c(Cl)c3)ncnc21 (centres undefined) | label 1 |
| Nc1ncnc2c1N=C(c1ccc(Cl)cc1)CC(c1cccc(Nc3ccnc4cc(Cl)ccc34)c1)N2 (centres undefined) | label 1 |
| C=C(C)[C@@H]1CC[C@]2(C(=O)N3CCN(C)CC3)CC[C@]3(C)[C@H](CC[C@@H]4[C@@](C)(CCC(=O)O)[C@H](C(=C)C)CC[C@]43C)[C@@H]12 | label 0 |
| c1cc(OCCN2CCCCC2)ccc1CNc1ccc2nc(CCC3CCCCC3)[nH]c2c1 | label 1 |
| C=CC(=O)Nc1cccc(Oc2nccc(Nc3nnc(-c4ccc(Br)cc4)s3)n2)c1 | label 0 |
| Cc1cccc(NC(=O)N/C(N)=N/c2nc3ccccc3s2)c1 | label 1 |
| CCOC(=O)c1nnn(Cc2cc(=O)oc3ccc(O)cc23)c1C | label 0 |
| C#CCOc1cccc(Nc2ncnc3cc(NC(=O)CCl)ccc23)c1 | label 1 |
| CCN1C(=O)N(CC)C2C1NN=c1s/c(=C\c3ccc(OC)cc3)c(=O)n12 (centres undefined) | label 1 |
| CNC(=O)c1cc(Oc2ccc3c(c2)sc2nc(-c4ccc(Cl)c(C(F)(F)F)c4)cn23)ccn1 | label 0 |
| Nc1ncnc2c1N=C(c1ccc(F)cc1)CC(c1cccc(Nc3ccnc4cc(Cl)ccc34)c1)N2 (centres undefined) | label 0 |

----------
System: IGROV1 ovarian
test protocol: NCI-60 one-dose screen, 48 h (100 = growth as untreated, 0 = no growth, -100 = all killed)
condition info: 10 µM unless noted
The panel holds about 83,000 compounds, 20% with a hit somewhere; the sample as a whole holds those more often.
result type: growth (%)

| compound | result type | data value |
| --- | --- | --- |
| C[C@H](c1nc2ccc(C#N)cc2[nH]1)[C@H]1CC[C@H]2[C@@H]3CCC4=CC(=O)CC[C@]4(C)[C@H]3CC[C@]12C | growth | 66.9 |
| COc1cc2ncnc(Nc3ccc(S(=O)(=O)Nc4nccs4)cc3)c2cc1OCCCN1CCCC1 | growth | 110 |
| c1csc(-c2cn3nc(-c4c[nH]c5ccccc45)sc3n2)c1 | growth | 30.6 |
| COC(=O)Cn1c2c(c3c(OC)cccc31)C(=O)c1ccccc1-2 | growth | 110 |
| O=C(Oc1ccc2c(c1)sc1nc(-c3ccccc3)[nH]c(=O)c12)C(F)(F)F | growth | 32.9 |
| Fc1ccc2[nH]cc(-c3nc(-c4c[nH]c5c(Cl)nccc45)cs3)c2c1 | growth | 61.7 |
| O=S(Nc1ccccc1)c1ccc(Cl)cc1 (stereo not given) | growth | 105 |
| Cc1ccc(S(=O)(=O)OCC#CCOS(=O)(=O)c2ccc(C)cc2)cc1 | growth | -40.2 |
| CCOC(=O)CC1CSC(N/N=C/c2ccc(F)c(Br)c2)=N1 (stereo not given) | growth | 117 |
| C=C(c1ccc(C(=O)O)c(F)c1)c1cc2c(cc1C)C(C)(C)CCC2(C)C | growth | 98 |

----------
Tested on: CCRF-CEM leukemia
test protocol: NCI-60 one-dose screen, 48 h (100 = growth as untreated, 0 = no growth, -100 = all killed)
condition info: 10 µM unless noted
The panel holds about 83,000 compounds, 20% with a hit somewhere; the sample as a whole holds those more often. Calls of active or inactive are those of the source. Rule for the calls: active = growth percent below 10; inactive = the rest.

| compound | growth |
| --- | --- |
| C=C(c1ccc(C(=O)O)c(F)c1)c1cc2c(cc1C)C(C)(C)CCC2(C)C | 86.8% (inactive) |
| O=[N+]([O-])c1ccccc1Nc1ccc2ccccc2c1 | 92.3% (inactive) |
| CN1CCN(c2ccc(NC3=CC(=O)c4ncncc4C3=O)cc2)CC1 | 3.21% (active) |
| Cc1ccc(NC(=O)c2sc3nc(C)c(C(O)c4ccccc4)cc3c2N)cc1 (stereo unspecified) | 7.67% (active) |
| CN(C)CCCn1c2c(c3cnccc3c1=O)C(=O)c1ccccc1-2 | 9.81% (active) |
| CC1(C)CC(=O)C2=C(C1)C(c1ccc(Cl)cc1)n1ncc(C#N)c1N2 (stereo unspecified) | 98.4% (inactive) |

----------
Test system: T-47D breast
test protocol: NCI-60 one-dose screen, 48 h (100 = growth as untreated, 0 = no growth, -100 = all killed)
condition info: 10 µM unless noted
Experimental: Growth inhibition of the T-47D human tumor cell line is measured as a screen for anti-cancer activity. Cells are grown in 96 well plates and exposed to the test compound for 48 hours. Compounds are tested at a single concentration, which is 10^-5 M for most compounds. The reported endpoint is percent growth (GI% or GIPRCNT), where numbers from 0 - 100% represent growth inhibition, and numbers from -100% - 0 represent cell death. For example, a value of 40 represents 60% growth inhibition. […]
About 83,000 compounds went through this panel and 20% of them were active in at least one assay; those are over-represented in the sample as a whole.
Catalogue of compounds with associated growth

| compound | unit annotation | growth |
| --- | --- | --- |
| O=S(=O)(Nc1cc(F)cc(F)c1)c1ccc(-c2cnc(C3CC3)o2)cc1 | % | 29.8 |
| c1ccc(-c2nc3ccccc3[nH]2)c(OCCCCCOc2ccccc2-c2nc3ccccc3[nH]2)c1 | % | 111 |
| CS(=O)(=O)c1ccc(-c2nc3ccccc3n2CC(=O)N/N=C/c2ccccc2)cc1 | % | 82.4 |
| CN(C)CCn1c(=O)c2ccccc2n2nc3ccccc3c12 | % | 99.8 |
| COc1cc(Cc2cc(-c3ccccc3)nn(Cc3ccccc3)c2=O)cc(OC)c1OC | % | 6.19 |
| CCOC(=O)c1cnn(CC(C)O)c1NC(=O)NCc1cccc(F)c1 (centres undefined) | % | 100 |
| COC(=O)[C@@]1(C)CC[C@]2(C)CC[C@]3(C)C4=CC=C5C(=CC(=O)C(O)=C5C)[C@]4(C)[C@@H](O)C[C@@]3(C)[C@@H]2C1 | % | -13.7 |
| C=C1C(=O)O[C@H]2[C@H]1CC/C(COC(=O)NCc1ccc(Cn3c(=O)sn(-c4ccccc4)c3=O)cc1)=C\CC[C@@]1(C)O[C@@H]21 | % | 57.7 |
| C#CCOc1cccc(Nc2ncnc3cc(NC(=O)CCl)ccc23)c1 | % | -48.9 |

----------
System: UO-31 renal
test protocol: NCI-60 one-dose screen, 48 h (100 = growth as untreated, 0 = no growth, -100 = all killed)
condition info: 10 µM unless noted
Compounds without any hit were thinned out: in the full panel of roughly 83,000, 20% have a hit.
Please assign no whenever growth is at or above 30%, and yes whenever it is below.

| compound | classification |
| --- | --- |
| CC1SC(c2ccccc2O)N(NC(=O)CCC(=O)c2nc3ncccc3[nH]2)C1=O (stereo not given) | no |
| Cc1cc(C)c2c(c1)N(C)c1ncnc(-n3c(C)nc4cc(C)ccc43)c1CC2C (stereo not given) | no |
| Nc1ncnc2c1N=C(c1ccc(F)cc1)CC(c1cccc(Nc3ccnc4cc(Cl)ccc34)c1)N2 (stereo not given) | no |
| CC1=C2[C@@H](CC1)[C@]1(C)O[C@@](C3CCNCC3)(C[C@H]1OC(=O)CO)[C@H]2OC(=O)/C=C/c1ccccc1 | no |
| CN(C)CCCn1c2c(c3cnccc3c1=O)C(=O)c1ccccc1-2 | yes |
| COc1cccc(CNc2c3ccccc3nc3ccccc23)c1OC | yes |
| COc1cc2c3c(c4c5ccccc5[nH]c4c2c(OC)c1OC)C(=O)N(CCN1CCCCC1)C3=O | yes |
| c1ccc(-c2c(-c3ccccc3)[n+](Cc3ccc4ccccc4c3)cn2Cc2ccc3ccccc3c2)cc1 | yes |
| CCN(CC)CCCNc1cc(OC)c(OC)c2cccnc12 | no |
| Cc1c2ncccc2nc2[nH]c3ccc(OCCN(C)C)cc3c12 | yes |
| COc1cc2c(c(OC)c1OC)CCC(c1cccc(C(=O)Nc3ccc(Br)cc3)c1)O2 (stereo not given) | no |
| CC(=O)c1ccc(-n2cc(CN3CCN(c4cc5c(cc4F)c(=O)c(C(=O)O)cn5C4CC4)CC3)nn2)cc1 | no |
| COc1ccc(N/N=C/c2cn(-c3ccc(C(=O)O)cc3)nc2-c2cc3ccccc3oc2=O)cc1 | yes |
| C#CCOc1cccc(Nc2ncnc3c2ncn3C2CCN(C(=O)CCl)C2)c1 (stereo not given) | yes |
| Cc1nn(C)c2ncnc(N/N=C/c3cccc(O)c3O)c12 | yes |
| C=C1CC[C@@H]2C(C)(C)[C@H](O)CC[C@@]2(C)[C@@H]1COc1ccc2ccc(=O)oc2c1 | yes |
| CC(O)CNC(Cc1ccccc1)c1ccc2c(c1)OCO2 (stereo not given) | no |
| CC(C)(C)OC(=O)CN1CCc2c(sc3ncnc(N4CCN(c5ccc(F)cc5)CC4)c23)C1 | no |
| COc1cc(-c2ccc[nH]2)[nH]c1/C=C1\N=C(C)C(CC(=O)OCC(C)(C)C)=C1C | yes |
| N#Cc1c(-c2ccccc2)cc(-c2ccccc2)n(CCCCC(=O)NO)c1=O | yes |
| O=C(/C=C/c1ccco1)Nc1ncc(Cc2cc(Cl)ccc2Cl)s1 | no |
| O=C1C=CC2(O)OC/C(=C\c3ccccc3)C(O)=C2C1=O (stereo not given) | yes |
| CNC(=O)c1cc(Oc2ccc3c(c2)sc2nc(-c4cc(C(F)(F)F)cc(C(F)(F)F)c4)cn23)ccn1 | no |
| c1ccc(Nc2nc3c(s2)CCc2c[nH]cc2-3)nc1 | no |
| COc1ccc(C(=O)/C=C/c2ccccc2)cc1S(N)(=O)=O | no |
| COc1cc2ncnc(Nc3ccc(S(=O)(=O)Nc4nccs4)cc3)c2cc1OCCCN1CCCC1 | no |
| CC12OC(CC(O)C1O)n1c3ccccc3c3c4c(c5c6ccccc6n2c5c31)C(=O)N(CCN1CCCC1)C4=O (stereo not given) | yes |
| C=CCn1cc(-c2nc3ccccc3s2)c2cc(-c3ccc4c5c(cccc35)C(=O)N(CCO)C4=O)ccc21 | no |
| N#Cc1ccc(O)c(C2=NCC(c3ccc(-c4ccccc4)cc3)O2)c1 (stereo not given) | yes |
| COC12C=C/C(=C(/C(=O)OCc3csc(SC)n3)C(=O)CCCCCCCCC3(OC)C=C/C(=C(/C(=O)OCc4cnc(SC)s4)C(=O)CCCCCCCC1)O3)O2 (stereo not given) | no |
| CCN(CC)C(=O)C1=C(C)NC(=O)NC1c1ccc2c(c1)OCO2 (stereo not given) | no |
| COC(=O)c1sccc1-c1cc(O)c(C(=O)Nc2ccccc2)s1 | no |
| CCOC(=O)c1nnn(Cc2cc(=O)oc3ccc(O)cc23)c1C | no |
| O=Nc1ccc(NC(=O)Nc2ccc([N+](=O)[O-])cc2)cc1 | no |
| COc1ccc(C2[C@@H](c3ccccc3)C(=O)N2c2cc(OC)c(OC)c(OC)c2)cc1F (stereo not given in full) | no |
| CN1CCN(c2ccc(NC3=CC(=O)c4ncncc4C3=O)cc2)CC1 | yes |
| O=[N+]([O-])c1ccccc1Nc1ccc2ccccc2c1 | no |
| COc1ccc(CN2C(=O)OC(C)(COC(C)=O)C2=O)cc1 (stereo not given) | no |
| CCN1C(=O)N(c2ccccc2)C2NC(=S)N(/N=C/C=C/c3ccccc3OC)C21 (stereo not given) | no |
